Assay: A427 NSCLC subcutaneous xenograft model
Type: in vivo, mouse
Settings: female, CB17/Icr-Prkdc(scid)/IcrCrl, mouse, in vivo; docetaxel at 10 mg/kg q7d, single agent
Protocol: After fixation, tumor samples were embedded in paraffin blocks. Two-μm thick sections of each FFPE-block were prepared on a microtome, placed on glass slides and dewaxed. […] Quantification of Ki67 positivity was performed using multiplex IHC module with integrated AI based nucleus detection and a threshold set for positive nuclei was used. Viable tumor area was calculated from H&E staining using AI based classifier Densenet V2. […]
Readout Type: AUC
I'd appreciate it if you wrote the number followed by its unit.

The value of AUC measured for the molecule CC(=O)O[C@@]12CO[C@@H]1C[C@H](O)[C@@]1(C)C(=O)[C@H](O)C3=C(C)[C@@H](OC(=O)[C@H](O)[C@@H](NC(=O)OC(C)(C)C)c4ccccc4)C[C@@](O)([C@@H](OC(=O)c4ccccc4)[C@H]21)C3(C)C turned out to be 15.8 µM·h

---

Test: Mouse IV PK
Conditions: mouse, plasma, iv, 20 mg/kg
This listing pairs molecules with measured clearance.
Your answer is read as mL/min/kg, so omit the unit and give the number.

Worked cases, clearance given:
CCOc1c(OCC2CCOCC2)cc(N2C[C@@H](C)n3c(c(CCCOc4cc(C)c(Cl)c(C)c4)c4ccc(Cl)c(-c5c(C)nc(C)nc5C)c43)C2=O)c2c1cc(C(=O)O)n2C [Compound 32] : 3.7
COc1c(O[C@@H]2CCOC2)cc(N2C[C@@H](C)n3c(c(CCCOc4cc(C)c(Cl)c(C)c4)c4ccc(Cl)c(-c5c(C)nc(C)nc5C)c43)C2=O)c2c1cc(C(=O)O)n2C [Compound 30] : 13

In the following, a different molecule is considered.
The value of clearance measured for the molecule COc1c(OCC2CCOCC2)cc(N2C[C@@H](C)n3c(c(CCCOc4cc(C)c(Cl)c(C)c4)c4ccc(Cl)c(-c5c(C)ncnc5C)c43)C2=O)c2c1cc(C(=O)O)n2C [Compound 22] turned out to be 7

---

Assay: Mouse IV PK
Conditions: mouse, plasma, iv, 20 mg/kg
This listing pairs compounds with measured clearance.
Your answer is read as mL/min/kg, so omit the unit and give the number.

CCOc1c(O[C@H]2CCOC2)cc(N2C[C@@H](C)n3c(c(CCCOc4cc(C)c(Cl)c(C)c4)c4ccc(Cl)c(-c5c(C)nc(C)nc5C)c43)C2=O)c2c1cc(C(=O)O)n2C : 8.7
COc1c(OC[C@@H]2CCCO2)cc(N2C[C@@H](C)n3c(c(CCCOc4cc(C)c(Cl)c(C)c4)c4ccc(Cl)c(-c5c(C)nc(C)nc5C)c43)C2=O)c2c1cc(C(=O)O)n2C : 8.9

In the following, a different compound is considered.
The value of clearance measured for the compound COc1c(OC[C@H]2CCCO2)cc(N2C[C@@H](C)n3c(c(CCCOc4cc(C)c(Cl)c(C)c4)c4ccc(Cl)c(-c5c(C)nc(C)nc5C)c43)C2=O)c2c1cc(C(=O)O)n2C turned out to be 8.4

---

Assay: Plasma protein binding
Assay type: in vitro ADME
Details: above the limit of quantification of the assay
Readout Type: fraction unbound

The value of fraction unbound measured for the compound COc1c(OCC2CCOCC2)cc(N2C[C@@H](C)n3c(c(CCCOc4cc(C)c(Cl)c(C)c4)c4ccc(Cl)c(-c5c(C)nc(C)nc5C)c43)C2=O)c2c1cc(C(=O)O)n2C [Compound 26] turned out to be < 0.002

---

Test: Mouse IV PK
Conditions: mouse IV, dosed at 20 mg/kg, dose normalized
Marks after values point to notes of the source that are not given here.
Readout Type: AUC/Dose

Worked cases, AUC/Dose given:
COc1c(OC[C@H]2CCCO2)cc(N2C[C@@H](C)n3c(c(CCCOc4cc(C)c(Cl)c(C)c4)c4ccc(Cl)c(-c5c(C)nc(C)nc5C)c43)C2=O)c2c1cc(C(=O)O)n2C : 2510^d nM*h/mpk
COc1c(OCC2CCOCC2)cc(N2C[C@@H](C)n3c(c(CCCOc4cc(C)c(Cl)c(C)c4)c4ccc(Cl)c(-c5c(C)ncnc5C)c43)C2=O)c2c1cc(C(=O)O)n2C : 2830^d nM*h/mpk

In the following, a different compound is considered.
The value of AUC/Dose measured for the compound COc1c(O[C@@H]2CCOC2)cc(N2C[C@@H](C)n3c(c(CCCOc4cc(C)c(Cl)c(C)c4)c4ccc(Cl)c(-c5c(C)nc(C)nc5C)c43)C2=O)c2c1cc(C(=O)O)n2C turned out to be 1425^d nM*h/mpk

---

A set of compounds tested on Mcl-1 (Homo sapiens), with measured Ki:

Worked cases, Ki given:
Cc1cc(N2C[C@@H](C)n3c(c(CCCOc4cc(C)c(Cl)c(C)c4)c4ccc(Cl)c(-c5c(C)nn(C)c5C)c43)C2=O)c2c(c1)cc(C(=O)O)n2C : 0.205 nM
COCc1cc(N2C[C@@H](C)n3c(c(CCCOc4cc(C)c(Cl)c(C)c4)c4ccc(Cl)c(-c5c(C)nn(C)c5C)c43)C2=O)c2c(c1)cc(C(=O)O)n2C : 0.2 nM
COc1cc(N2C[C@@H](C)n3c(c(CCCOc4cc(C)c(Cl)c(C)c4)c4ccc(Cl)c(-c5c(C)nn(C)c5C)c43)C2=O)c2c(c1)cc(C(=O)O)n2C : 0.185 nM

In the following, a different compound is considered.
The value of Ki measured for the compound COc1ccc(N2C[C@@H](C)n3c(c(CCCOc4cc(C)c(Cl)c(C)c4)c4ccc(Cl)c(-c5c(C)nn(C)c5C)c43)C2=O)c2c1cc(C(=O)O)n2C turned out to be 0.091 nM

---

Assay: NCI-H929 subcutaneous multiple myeloma xenograft model
Format: in vivo, mouse
Conditions: female, CB17/Icr-Prkdc(scid)/IcrCrl, mouse, in vivo; 60 mg/kg, single dose IV, NCI-H929 xenograft study
Readout Type: AUC (µM·h)
Your answer is read as µM·h, so omit the unit and give the number.

The value of AUC measured for the molecule COc1c(OCC2CCOCC2)cc(N2C[C@@H](C)n3c(c(CCCOc4cc(C)c(Cl)c(C)c4)c4ccc(Cl)c(-c5c(C)nc(C)nc5C)c43)C2=O)c2c1cc(C(=O)O)n2C turned out to be 442

---

Experiment: Mouse IV PK
Details: mouse, plasma, iv, 25 mg/kg
Readout Type: clearance (mL/min/kg)
Your answer is read as mL/min/kg, so omit the unit and give the number.

Worked cases, clearance given:
COCCOc1cc(N2C[C@@H](C)n3c(c(CCCOc4cc(C)c(Cl)c(C)c4)c4ccc(Cl)c(-c5c(C)nc(C)nc5C)c43)C2=O)c2c(cc(C(=O)O)n2C)c1OC : 51
COCCOc1cc(N2C[C@@H](C)n3c(c(CCCOc4cc(C)c(Cl)c(C)c4)c4ccc(Cl)c(-c5c(C)ncnc5C)c43)C2=O)c2c(cc(C(=O)O)n2C)c1OC : 58

In the following, a different compound is considered.
The value of clearance measured for the compound COc1c(OC[C@H]2CCCO2)cc(N2C[C@@H](C)n3c(c(CCCOc4cc(C)c(Cl)c(C)c4)c4ccc(Cl)c(-c5c(C)nc(C)nc5C)c43)C2=O)c2c1cc(C(=O)O)n2C turned out to be 8.4

The measurements presented in this section are drawn from paper PMC11345828.
